Experiment: Plasma pharmacokinetics (LC–MS/MS, non-compartmental analysis)
Assay type: in vivo, Japanese patients
Settings: human, plasma, oral, 400 mg, Cycle 1 Day 28; 400 mg bid; n = 3; read-out: AUC0 − 24, Median
observable: AUC(0-t) (µg·h/mL)
The answer is to be given in µg·h/mL; state only the numeric part.

Consider the compound Cn1c(=O)n(-c2ccc(C(C)(C)C#N)cc2)c2c3cc(-c4cnc5ccccc5c4)ccc3ncc21 [BEZ235] and give its measured AUC(0-t). 29.4

###

Experiment: Plasma pharmacokinetics (LC–MS/MS, non-compartmental analysis)
Assay type: in vivo, Japanese patients
Details: human, plasma, oral, 1400 mg, Cycle 1 Day 1; 1400 mg qd; n = 1; read-out: AUCinf, Median
Procedure: The PK parameters were determined by non-compartmental analysis using Phoenix WinNonlin 6.2® (Pharsight, Mountain View, CA).
observable: AUC(0-inf) (ng·h/mL)
# output: bare number, implied unit ng·h/mL

Name the recorded AUC(0-inf) for Cn1c(=O)n(-c2ccc(C(C)(C)C#N)cc2)c2c3cc(-c4cnc5ccccc5c4)ccc3ncc21 . 1290

###

Experiment: Plasma pharmacokinetics (LC–MS/MS, non-compartmental analysis)
Type: in vivo, Japanese patients
Conditions: human, plasma, oral, 400 mg, Cycle 1 Day 28; 400 mg qd; n = 3; read-out: AUClast, Median
observable: AUC(0-t) (ng·h/mL)
Field: numeric (ng·h/mL). Do not append units.

Return reported AUC(0-t); argument: Cn1c(=O)n(-c2ccc(C(C)(C)C#N)cc2)c2c3cc(-c4cnc5ccccc5c4)ccc3ncc21 8920

###

Assay: Plasma pharmacokinetics (LC–MS/MS, non-compartmental analysis)
Type: in vivo, Japanese patients
Settings: human, plasma, oral, 800 mg, Cycle 1 Day 28; 800 mg qd; n = 2; read-out: AUCinf, Median
observable: AUC(0-inf) (ng·h/mL)
// units = ng·h/mL; emit number, no label

Which AUC(0-inf) value belongs to Cn1c(=O)n(-c2ccc(C(C)(C)C#N)cc2)c2c3cc(-c4cnc5ccccc5c4)ccc3ncc21 ? 13500

###

Experiment: Plasma pharmacokinetics (LC–MS/MS, non-compartmental analysis)
Assay type: in vivo, Japanese patients
Conditions: human, plasma, oral, 800 mg, Cycle 1 Day 28; 800 mg qd; n = 3; read-out: AUClast, Median
observable: AUC(0-t)
Please provide the amount together with its unit, number first.

Which AUC(0-t) value is on record for Cn1c(=O)n(-c2ccc(C(C)(C)C#N)cc2)c2c3cc(-c4cnc5ccccc5c4)ccc3ncc21 ? 24900 ng·h/mL

###

Assay: Plasma pharmacokinetics (LC–MS/MS, non-compartmental analysis)
Assay type: in vivo, Japanese patients
Settings: human, plasma, oral, 1200 mg, Cycle 1 Day 1; 1200 mg qd; n = 3; read-out: AUC0 − 24, Median
observable: AUC(0-t) (ng·h/mL)
Expressed in ng·h/mL, but write only the number.

Can you share its AUC(0-t)? I mean this molecule: Cn1c(=O)n(-c2ccc(C(C)(C)C#N)cc2)c2c3cc(-c4cnc5ccccc5c4)ccc3ncc21 6420

###

Assay: Plasma pharmacokinetics (LC–MS/MS, non-compartmental analysis)
Type: in vivo, Japanese patients
Conditions: human, plasma, oral, 800 mg, Cycle 1 Day 1; 800 mg qd; n = 1; read-out: AUCinf, Median
observable: AUC(0-inf)
Please answer using the number first and the unit second.

What value of AUC(0-inf) has been recorded for this entry: Cn1c(=O)n(-c2ccc(C(C)(C)C#N)cc2)c2c3cc(-c4cnc5ccccc5c4)ccc3ncc21 [BEZ235] 1490 ng·h/mL

###

Assay: Plasma pharmacokinetics (LC–MS/MS, non-compartmental analysis)
Format: in vivo, Japanese patients
Conditions: human, plasma, oral, 1400 mg, Cycle 1 Day 28; 1400 mg qd; n = 4; read-out: Tmax, Median
observable: Tmax (h)
# number only, unit h dropped from output

Look up Tmax: Cn1c(=O)n(-c2ccc(C(C)(C)C#N)cc2)c2c3cc(-c4cnc5ccccc5c4)ccc3ncc21 [BEZ235] 4

###

Test: Plasma pharmacokinetics (LC–MS/MS, non-compartmental analysis)
Assay type: in vivo, Japanese patients
Details: human, plasma, oral, 800 mg, Cycle 1 Day 8; 800 mg qd; n = 3; read-out: Cmax, Median
observable: Cmax (ng/mL)
Kindly answer with a numeric value in ng/mL, unit omitted.

Entry Cn1c(=O)n(-c2ccc(C(C)(C)C#N)cc2)c2c3cc(-c4cnc5ccccc5c4)ccc3ncc21 has what Cmax? 1170

###

Assay: Plasma pharmacokinetics (LC–MS/MS, non-compartmental analysis)
Assay type: in vivo, Japanese patients
Details: human, plasma, oral, 1400 mg, Cycle 1 Day 28; 1400 mg qd; n = 4; read-out: AUC0 − 24, Median
observable: AUC(0-t) (ng·h/mL)
# unit: ng·h/mL | format: bare number

# query: AUC(0-t) of entry Cn1c(=O)n(-c2ccc(C(C)(C)C#N)cc2)c2c3cc(-c4cnc5ccccc5c4)ccc3ncc21 [BEZ235] 18300

###

Experiment: Plasma pharmacokinetics (LC–MS/MS, non-compartmental analysis)
Type: in vivo, Japanese patients
Conditions: human, plasma, oral, 1200 mg, Cycle 1 Day 8; 1200 mg qd; n = 4; read-out: AUC0 − 24, Median
observable: AUC(0-t)

AUC(0-t) lookup needed for Cn1c(=O)n(-c2ccc(C(C)(C)C#N)cc2)c2c3cc(-c4cnc5ccccc5c4)ccc3ncc21 , thanks. 34200 ng·h/mL

###

Assay: Plasma pharmacokinetics (LC–MS/MS, non-compartmental analysis)
Assay type: in vivo, Japanese patients
Conditions: human, plasma, oral, 400 mg, Cycle 1 Day 1; 400 mg bid; n = 2; read-out: AUCinf, Median
observable: AUC(0-inf) (ng·h/mL)
Numbers only here, please. The scale is ng·h/mL.

For Cn1c(=O)n(-c2ccc(C(C)(C)C#N)cc2)c2c3cc(-c4cnc5ccccc5c4)ccc3ncc21 [BEZ235] , what is its reported AUC(0-inf)? 2000

###

Experiment: Plasma pharmacokinetics (LC–MS/MS, non-compartmental analysis)
Type: in vivo, Japanese patients
Settings: human, plasma, oral, 1000 mg, Cycle 1 Day 1; 1000 mg qd; n = 4; read-out: AUC0 − 24, Median
observable: AUC(0-t) (ng·h/mL)
Numeric answer only, unit ng·h/mL assumed.

Bench note: what AUC(0-t) did Cn1c(=O)n(-c2ccc(C(C)(C)C#N)cc2)c2c3cc(-c4cnc5ccccc5c4)ccc3ncc21 [BEZ235] show? 4330

###

Assay: Plasma pharmacokinetics (LC–MS/MS, non-compartmental analysis)
Type: in vivo, Japanese patients
Details: human, plasma, oral, all dose levels and dosing schedules; read-out: individual Tmax range
observable: Tmax

# get_value(readout='Tmax', item= Cn1c(=O)n(-c2ccc(C(C)(C)C#N)cc2)c2c3cc(-c4cnc5ccccc5c4)ccc3ncc21 [BEZ235] ) 1 to 24 h

###

Test: Plasma pharmacokinetics (LC–MS/MS, non-compartmental analysis)
Format: in vivo, Japanese patients
Conditions: human, plasma, oral, 400 mg, Cycle 1 Day 1; 400 mg qd; n = 3; read-out: AUClast, Median
observable: AUC(0-t) (ng·h/mL)
Just the number please, in ng·h/mL, no unit attached.

What does the data say about its AUC(0-t)? Entry: Cn1c(=O)n(-c2ccc(C(C)(C)C#N)cc2)c2c3cc(-c4cnc5ccccc5c4)ccc3ncc21 [BEZ235] 1040

###

Assay: Plasma pharmacokinetics (LC–MS/MS, non-compartmental analysis)
Format: in vivo, Japanese patients
Conditions: human, plasma, oral, 400 mg, Cycle 1 Day 1; 400 mg qd; n = 3; read-out: AUC0 − 24, Median
observable: AUC(0-t) (ng·h/mL)
Dear colleague, please return just the value in ng·h/mL, with no unit written.

Look at this compound and give its reported AUC(0-t). Cn1c(=O)n(-c2ccc(C(C)(C)C#N)cc2)c2c3cc(-c4cnc5ccccc5c4)ccc3ncc21 1040

###

Assay: Plasma pharmacokinetics (LC–MS/MS, non-compartmental analysis)
Format: in vivo, Japanese patients
Details: human, plasma, oral, 400 mg, Cycle 1 Day 28; 400 mg bid; n = 4; read-out: Cmax, Median
Procedure: The PK parameters were determined by non-compartmental analysis using Phoenix WinNonlin 6.2® (Pharsight, Mountain View, CA).
observable: Cmax (ng/mL)
I only need the number, in ng/mL, no unit after it.

May I ask what Cmax has been recorded for Cn1c(=O)n(-c2ccc(C(C)(C)C#N)cc2)c2c3cc(-c4cnc5ccccc5c4)ccc3ncc21 [BEZ235] ? 3650

###

Assay: Plasma pharmacokinetics (LC–MS/MS, non-compartmental analysis)
Format: in vivo, Japanese patients
Settings: human, plasma, oral, 800 mg, Cycle 1 Day 28; 800 mg qd; n = 3; read-out: AUC0 − 24, Median
observable: AUC(0-t) (ng·h/mL)
Answer in ng·h/mL, number only, no unit symbol.

Name the reported AUC(0-t) value associated with the compound Cn1c(=O)n(-c2ccc(C(C)(C)C#N)cc2)c2c3cc(-c4cnc5ccccc5c4)ccc3ncc21 25000
